# study-system: FGFR4-WT (Homo sapiens (Human), UniProt P22455)
# Sequence (P22455 22-802): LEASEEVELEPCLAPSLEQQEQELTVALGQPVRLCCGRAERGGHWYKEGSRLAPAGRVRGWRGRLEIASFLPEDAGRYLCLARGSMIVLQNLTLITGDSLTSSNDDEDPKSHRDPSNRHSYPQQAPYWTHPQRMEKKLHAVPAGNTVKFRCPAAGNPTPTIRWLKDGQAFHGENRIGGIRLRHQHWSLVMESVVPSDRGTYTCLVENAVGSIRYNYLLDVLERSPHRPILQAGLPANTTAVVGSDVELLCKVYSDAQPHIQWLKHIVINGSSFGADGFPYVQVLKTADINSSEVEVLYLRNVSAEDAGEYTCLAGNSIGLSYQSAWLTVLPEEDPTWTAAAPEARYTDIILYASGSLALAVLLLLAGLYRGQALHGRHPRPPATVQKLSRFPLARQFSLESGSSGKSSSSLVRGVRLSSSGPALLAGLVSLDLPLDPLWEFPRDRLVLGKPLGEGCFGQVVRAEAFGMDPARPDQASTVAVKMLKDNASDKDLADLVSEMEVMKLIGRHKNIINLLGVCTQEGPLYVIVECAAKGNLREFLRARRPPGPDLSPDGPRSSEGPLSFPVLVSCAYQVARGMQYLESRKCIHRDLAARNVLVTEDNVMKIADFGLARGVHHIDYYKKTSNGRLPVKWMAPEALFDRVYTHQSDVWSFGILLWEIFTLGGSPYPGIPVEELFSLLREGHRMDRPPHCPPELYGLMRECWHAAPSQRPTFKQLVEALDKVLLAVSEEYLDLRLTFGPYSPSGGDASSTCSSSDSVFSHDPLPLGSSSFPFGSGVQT
# method-summary: Omnia assay for potency assessment against FGFR4 enzyme
# Format: biochemical
# experimental-context: method a: [FGFR4-WT]=10 nM (Invitrogen), [ATP]=300 uM, [Y10-Sox]=10 uM
# Method: A 10× stock solution of FGFR4-WT (PR4380C), (from Invitrogen, Carlsbad, Calif.) corresponding to method a in Table 7, was prepared as described below. Alternatively, a 10× stock solution of FGFR4-WT (F01-11G), (SignalChem, Richmond, BC) corresponding to method b in Table 7, was prepared as described below. […] The reactions were monitored every 71 seconds for 240 minutes at λex360/λem485 in a Synergy plate reader from BioTek (Winooski, Vt.).
metric-name: IC50

| compound | IC50 |
| --- | --- |
| C=CC(=O)Nc1ccccc1Nc1ncc2c(n1)N(CCF)C(=O)N(c1cc(OC)cc(OC)c1Cl)C2 [Compound I-110] | < 100 nM |
| C=CC(=O)N[C@H]1CCCC[C@H]1Nc1ncc2c(n1)N(C)C(=O)N(c1cc(OC)c(OC)c(OC)c1)C2 [Compound I-220] | > 1000 nM |
| C=CC(=O)Nc1cc(C2CCN(CC)CC2)ccc1Nc1ncc2c(n1)N(C)C(=O)N(c1cc(OC)cc(OC)c1)C2 [Compound I-54] | < 100 nM |
| C=CC(=O)Nc1ccccc1Nc1ncc2c(n1)N(CCOC)C(=O)N(c1cc(OC)cc(OC)c1)C2 [Compound I-59] | < 100 nM |
| C=CC(=O)NC1COCC1Nc1ncc2c(n1)N(C)C(=O)N(c1ccc(OC)cc1)C2 (stereo not shown) [Compound I-209] | > 1000 nM |
| C=CC(=O)N(C)c1ccccc1Nc1ncc2c(n1)N(C)C(=O)N(c1c(Cl)c(OC)cc(OC)c1Cl)C2 [Compound I-29] | 101 to 500 nM |

Consider the record given below.
**Q:** Fill blank: measured IC50 of the compound C=CC(=O)NC1CCCCC1Nc1ncc2c(n1)N(CC1CC1)C(=O)N(c1cc(OC)cc(OC)c1Cl)C2 (stereo not shown) [Compound I-101] is ____.
**A:** 101 to 500 nM
